This collection of values is drawn from patent US20030068675.

# System Under Test: ZFP SBS#305 (synthetic)
# Sequence (chain, as listed by the source): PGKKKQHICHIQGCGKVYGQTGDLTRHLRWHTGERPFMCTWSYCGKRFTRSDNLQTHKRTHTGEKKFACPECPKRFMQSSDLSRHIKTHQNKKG
# Assay Info: EMSA
# Condition Label: tags: MBP fusion
Endpoint Label: Kd (nM)
The figure you give is taken to be in nM; do not add the unit.

Q: Quick one: Kd of GCTTAGGCA (dsDNA) DNA 1: GCTTAGGCA DNA 2: TGCCTAAGC ?
Ans: 230
